- system: mutant MGL (Homo sapiens, UniProt Q99685, L169S/L176S)
- Sequence (Q99685 whole entry L169S/L176S): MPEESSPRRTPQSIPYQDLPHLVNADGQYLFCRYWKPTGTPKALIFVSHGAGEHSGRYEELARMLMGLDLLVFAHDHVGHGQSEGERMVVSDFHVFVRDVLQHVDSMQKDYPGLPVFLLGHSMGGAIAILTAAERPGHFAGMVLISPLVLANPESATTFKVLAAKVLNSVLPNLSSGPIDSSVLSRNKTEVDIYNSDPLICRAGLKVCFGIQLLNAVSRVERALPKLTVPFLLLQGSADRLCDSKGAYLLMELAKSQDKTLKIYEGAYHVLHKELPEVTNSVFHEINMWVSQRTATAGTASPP
- procedure_details: MGL ThermoFluor assay - mutant
- Type: binding
- applied_conditions: ThermoFluor, compound concentration measured by qNMR, read-out: MGL mutant ThermoFluor qKd (using qNMR conc.)
pKd: −log10 of the molar value.
parameter_measured: pKd

O=C(c1ccc(-c2nc(-c3ccc(Cl)c(Cl)c3)cs2)cc1)N1CC(N2CCN(C(=O)c3nccs3)CC2)C1 ... 8.00
Cc1c(C(=O)N2CCN(C3CN(C(=O)c4ccc[nH]4)C3)CC2)n(C)c2ccc(Cl)cc12 ... 5.60
O=C(c1ccccc1)c1c[nH]c(C(=O)N2CC(N3CCN(C(=O)c4nccs4)CC3)C2)c1 ... 5.07
Cc1cccc(-n2ccc3cc(C(=O)N4CC(N5CCN(C(=O)c6nccs6)CC5)C4)ccc32)n1 ... 8.10
Cc1cc(-n2ccc3cc(C(=O)N4CC(N5CCN(C(=O)c6nccs6)CC5)C4)ccc32)ccn1 ... 7.85

P: Cc1nc2cc(C(=O)N3CC(N4CCN(C(=O)c5nccs5)CC4)C3)ccc2s1
Q: Cc1nc2ccc(Cl)cc2cc1C(=O)N1CC(N2CCN(C(=O)c3nccs3)CC2)C1
R: O=C(c1ccc2c(ccn2-c2ccc(F)cn2)c1)N1CC(N2CCN(C(=O)c3nccs3)CC2)C1
S: O=C(Nc1ccc(C(=O)N2CC(N3CCN(C(=O)c4nccs4)CC3)C2)cc1)c1cc(F)ccc1Cl
T: CCCN(CCC)S(=O)(=O)c1ccc(C(=O)N2CC(N3CCN(C(=O)c4nccs4)CC3)C2)cc1
query: Sort (5 compounds) by pKd: min first. Please list each label once, in the requested order.
result: Q, P, T, S, R

1: Cc1c(C(=O)N2CC(N3CCN(C(=O)c4nccs4)CC3)C2)n(C)c2ccc(Cl)cc12
2: O=C(c1ccc2c(=O)c3ccccc3oc2c1)N1CC(N2CCN(C(=O)c3nccs3)CC2)C1
3: O=C(c1ccc2c(ccn2-c2ccc(C(F)(F)F)nc2)c1)N1CC(N2CCN(C(=O)c3ccc[nH]3)CC2)C1
query: Could you please order the items by pKd, going from the lowest number to the highest? Return value: ordered labels per request.
result: 2, 3, 1
(2: 6.71, 3: 7.00, 1: 7.20)

a: O=C(c1ccc(S(=O)(=O)N2CCCCC2)cc1)N1CC(N2CCN(C(=O)c3nccs3)CC2)C1
b: O=C(c1ccc(COCC(F)(F)F)cc1)N1CC(N2CCN(C(=O)c3nccs3)CC2)C1
c: O=C(c1cscn1)N1CCN(C2CN(C(=O)c3cc4ccc(C(F)(F)F)nc4[nH]3)C2)CC1
d: Cc1nc(-c2ccncc2)sc1C(=O)N1CC(N2CCN(C(=O)c3nccs3)CC2)C1
e: COc1cc(-n2ccc3cc(C(=O)N4CC(N5CCN(C(=O)c6nccs6)CC5)C4)ccc32)ccn1
query: Order field: pKd | Direction: descending (largest first) Give me the labels in the order the question wants.
result: e, b, d, a, c

a: Cc1c(C(=O)N2CC(N3CCN(C(=O)c4cscn4)CC3)C2)n(C)c2ccc(Cl)cc12
b: COc1ccc2cc(C(=O)N3CC(N4CCN(C(=O)c5nccs5)CC4)C3)c(C)nc2c1
query: Lower value of pKd belongs to which: a or b ? Which one? Tell me its label.
result: b
(b: 5.79, a: 6.30)

Where these numbers come from: patent US8362000B2
